Test: Intrinsic clearance in rat liver microsomes
Format: ADME, Microsome
reported metric: microsomal CLint (µL/min/mg)
Numbers only here, please. The scale is µL/min/mg.

Sure, the documented microsomal CLint for Cc1cccc(C#CCOc2ccc(Cl)c(Cl)c2)n1 is 278
